Ref: ChEMBL document CHEMBL3351859

biological target: Indoleamine 2,3-dioxygenase 1 (Homo sapiens, UniProt P14902); experiment: Inhibition of intracellular IDO1 activity in human HeLa cells assessed as L-kynurenine production by Ehrlichs test
Sequence (P14902 whole entry): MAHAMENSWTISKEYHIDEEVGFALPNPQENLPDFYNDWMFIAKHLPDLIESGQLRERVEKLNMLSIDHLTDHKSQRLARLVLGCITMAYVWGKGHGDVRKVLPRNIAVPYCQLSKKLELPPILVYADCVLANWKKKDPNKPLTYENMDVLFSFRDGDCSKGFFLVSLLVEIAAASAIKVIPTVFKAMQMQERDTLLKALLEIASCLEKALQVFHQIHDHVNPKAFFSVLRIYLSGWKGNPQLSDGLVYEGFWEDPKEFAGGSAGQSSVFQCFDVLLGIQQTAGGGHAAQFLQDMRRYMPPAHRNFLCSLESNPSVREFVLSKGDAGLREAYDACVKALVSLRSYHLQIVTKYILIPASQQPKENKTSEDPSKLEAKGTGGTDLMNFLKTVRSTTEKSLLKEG
observation type: IC50 (µM)

{"compound": "CS(=O)(=O)NCc1cc(Cl)ccc1Nc1cnn[nH]1", "IC50 (µM)": 1}
{"compound": "N#Cc1cc(Nc2cn[nH]n2)ccc1Cl", "IC50 (µM)": 0.1}

A. CCc1cc(Nc2cnn[nH]2)ccc1Cl
B. O=C(O)C1CC(Cc2cc(Cl)ccc2Nc2cn[nH]n2)C1 (stereo unspecified)
Qu. From the recorded data, which exceeds the other in IC50: A or B ? Write down the label of the entry you select.
Ans. B
(B: 1 µM, A: 0.1 µM)
